- System: U2OS
- ASSAY_EXPLANATION: Multiplex assay against U2OS
- Format: toxicity, cell-based
- DETAILS: human, 12 h, 10 µM, compound concentration 10 uM, replicate 1
RESULT_TYPE: Population Normal (%)
Report the figure in % without appending any unit label.

## Task # query: Population Normal (%) | item NCCc1cn(S(=O)(=O)c2c(Cl)nc3sccn23)c2ccccc12.O=C(O)C(=O)O | system: U2OS
## Result 94

## Task And what about the compound Cc1onc(-c2ccccc2Cl)c1C(=O)N(C)c1ccc(Cl)cc1 ?
## Result 95

## Task Entry CN[C@@H](C)C(=O)N[C@H](C(=O)N1CCC[C@H]1C(=O)Nc1snnc1-c1ccccc1)C1CCCCC1 [GDC-0152] please
## Result 95

## Task Now this one: Cc1noc(-c2ccc(-c3ccc(CC(=O)O)cc3)cc2)c1NC(=O)O[C@H](C)c1ccccc1Cl
## Result 97

## Task Thanks! And CCCOc1ccc2[nH]cc(C3=CCNCC3)c2n1.Cl ?
## Result 96

## Task And then CC(C)(C)c1cc(NC(=O)Nc2ccc(-c3cn4c(n3)sc3cc(OCCN5CCOCC5)ccc34)cc2)no1 [QUIZARTINIB] , what is it?
## Result 86

## Task Also Cc1sc2c(c1C)C(c1ccc(Cl)cc1)=N[C@@H](CC(=O)NCCCCCCCCNC(=O)COc1cccc3c1C(=O)N(C1CCC(=O)NC1=O)C3=O)c1nnc(C)n1-2 (stereo partly drawn) , if possible.
## Result 94

## Task Let us now turn to CC(C)COc1ccc(CNC(=O)N(Cc2ccc(F)cc2)C2CCN(C)CC2)cc1 [PIMAVANSERIN]
## Result 94

## Task Now the same for COc1cccc2c1c(NS(=O)(=O)c1ccc(Cl)s1)nn2Cc1cccc(CNC(=O)C(C)(C)O)c1
## Result 98

## Task What do you have for C[C@H](N)COC(=O)[C@@H](CCCCN)NC(=O)Cc1c(-c2ccc3ccccc3c2)[nH]c2c1ccc1ccccc12 ?
## Result 97

## Task What would you report for CN(C)C(=O)Cn1cc(-c2ccc(-c3cncc4ccccc34)cc2)cn1 ?
## Result 94

## Task Same for CC[C@@H](C)Nc1nc(C)nc2c(-c3ccc(OC)nc3C)c(C)nn12 [PEXACERFONT]
## Result 98

## Task Query Cl.N=C(N)NC(=O)Cc1c(Cl)cccc1Cl [GUANFACINE HYDROCHLORIDE] next
## Result 98

## Task Repeat with Cc1cnc(-c2cc(N3CCN(C(=O)CCS(C)(=O)=O)CC3)ncc2Cl)c(C)c1
## Result 98

## Task Another: CC(=O)Nc1cccc2c1c(Sc1ccc(Cl)cc1)c(C)n2CC(=O)O [AZD1981]
## Result 97

## Task Continue with CC(/C=C1\SC(=S)N(CCCC(=O)Nc2ccc(C(=O)O)c(O)c2)C1=O)=C\c1ccccc1
## Result 96

## Task What do you get for N#Cc1c(Oc2cccc(OS(=O)(=O)CCCC(F)(F)F)c2)cccc1C(F)(F)F ?
## Result 96

## Task Similarly, O=C(NCCN1CCC(n2c(=O)[nH]c3cc(Cl)ccc32)CC1)c1ccc(F)cc1 [HALOPEMIDE] ?
## Result 95

## Task Do the same for Cl.NCCc1ccc(O)c(O)c1 [DOPAMINE HYDROCHLORIDE] please
## Result 96

## Task Also CC(C)c1noc(N2CCC(COc3ccc(-c4ccc(S(C)(=O)=O)cc4)nc3)CC2)n1 [GSK-1292263] , if possible.
## Result 97

## Task Request: N#Cc1cc(F)cc(-c2nc(-c3ccc(F)cn3)no2)c1
## Result 98

## Task And CCCCC1=NC2(CCCC2)C(=O)N1Cc1ccc(-c2ccccc2-c2nnn[nH]2)cc1 [IRBESARTAN] ?
## Result 97

## Task Subsequent entry: Br.CS(=O)(=O)Nc1c(O)ccc2c1CCCC2C1=NCCN1 (stereo not drawn)
## Result 98

## Task # repeat for COC[C@@H](c1ccc(C(F)(F)F)cc1)N1CCN(C2(C)CCN(C(=O)c3c(C)ncnc3C)CC2)C[C@@H]1C.O=C(O)/C=C\C(=O)O [VICRIVIROC MALEATE]
## Result 98

## Task Could you do the same for COc1ccccc1N1CCN(C[C@@H](C(=O)NC(C)(C)C)c2ccccc2)CC1.Cl.Cl , please?
## Result 96

## Task And CCCCCC(O)/C=C/[C@H]1C(=O)CC(O)C1C/C=C\CCCC(=O)O (stereo partly drawn) ?
## Result 97

## Task Try this compound too: O=C1[C@H](Cc2ccc(O)cc2)N2C(=O)CCN(C(=O)NCc3ccccc3)[C@H]2CN1Cc1cccc2ccccc12
## Result 96

## Task Would you kindly repeat that for O=C(CCCc1ccccc1)Nc1nc2ccccc2c(=O)s1 ?
## Result 97

## Task Input CCCCC(=O)N(Cc1ccc(-c2ccccc2-c2nnn[nH]2)cc1)[C@H](C(=O)O)C(C)C
## Result 98

## Task Next compound: Cc1cccc(NC(=O)CN2CCC(c3ccccn3)CC2)c1.Cl.Cl
## Result 97

## Task Please give the result for CCc1cc2cc(NS(=O)(=O)c3ccc(C#N)cc3)ccc2n(CC)c1=O too.
## Result 97

## Task And what about the compound Cc1c(CC(=O)O)c2cccnc2n1Cc1ccc(S(C)(=O)=O)cc1C(F)(F)F [FEVIPIPRANT] ?
## Result 97

## Task Check CN1CCN(c2cc(-c3ccccc3)nc(N)n2)CC1 too.
## Result 99
